Measured z-score by item
Target: Metabotropic glutamate receptor 8 (Rattus norvegicus)
Test: mGluR8 Gi/Go-coupled signaling modulation – cell-based, rat, thallium flux, HTS, primary screen (AID 488969)
Settings: HEK293 rat mGluR8, GIRK (G protein-gated inwardly rectifying potassium channel) thallium flux, FluoZin2; at 10 µM; stronger effect = higher value; submaximal glutamate (EC20) added with thallium
Whole data set: some 110,000 compounds, median “z-score” near -0.1, cut for the highest 2% near 2. Many of the other results were omitted from the sample, so the highest values are more common in it than they were.

{"compound": "CC(NC(=O)c1ccccc1NC(=O)CSc1nnnn1C)c1ccccc1 (configuration not stated)", "test_target": "Metabotropic glutamate receptor 8 (Rattus norvegicus)", "z-score": 2.05}
{"compound": "Cc1sc(NC(=O)c2ccc(Br)s2)c(C(N)=O)c1C", "test_target": "Metabotropic glutamate receptor 8 (Rattus norvegicus)", "z-score": 0.0217}
{"compound": "CCOC(=O)c1c(N)sc2c(OCC)c(Br)ccc12", "test_target": "Metabotropic glutamate receptor 8 (Rattus norvegicus)", "z-score": 0.151}
{"compound": "Cc1nn(-c2ccccc2)c2c1C1(C(=O)N(C)c3ccccc31)C(C#N)=C(N)O2 (configuration not stated)", "test_target": "Metabotropic glutamate receptor 8 (Rattus norvegicus)", "z-score": -0.0421}
{"compound": "COc1cc(NC(=O)CSCc2cnn(-c3ccccc3)c2-n2cccc2)cc(OC)c1", "test_target": "Metabotropic glutamate receptor 8 (Rattus norvegicus)", "z-score": 7.86}
{"compound": "Cc1ccc(NC(=O)CCn2cnc3cc(C)c(C)cc32)cc1", "test_target": "Metabotropic glutamate receptor 8 (Rattus norvegicus)", "z-score": -0.642}
{"compound": "S=C(NC1CCCCC1)N(CCc1nc2ccccc2[nH]1)C1CCCC1", "test_target": "Metabotropic glutamate receptor 8 (Rattus norvegicus)", "z-score": -1.02}
{"compound": "NS(=O)(=O)c1ccc(NC(=S)N2CCN(S(=O)(=O)c3ccc(F)cc3)CC2)cc1", "test_target": "Metabotropic glutamate receptor 8 (Rattus norvegicus)", "z-score": 0.195}
{"compound": "COc1ccc(OC)c(NC(=O)CSCc2cnn(-c3ccccc3)c2-n2cccc2)c1", "test_target": "Metabotropic glutamate receptor 8 (Rattus norvegicus)", "z-score": 0.126}
{"compound": "Cc1ccc(-n2nnnc2-c2cnn(-c3cccc(F)c3)c2C(F)(F)F)cc1", "test_target": "Metabotropic glutamate receptor 8 (Rattus norvegicus)", "z-score": 0.0555}
{"compound": "CCOc1ccc(N2CC(C(=O)Nc3ccccc3OC)CC2=O)cc1 (configuration not stated)", "test_target": "Metabotropic glutamate receptor 8 (Rattus norvegicus)", "z-score": 1.1}
{"compound": "COc1ccccc1Nc1nc2nonc2nc1N1CCC(C)CC1", "test_target": "Metabotropic glutamate receptor 8 (Rattus norvegicus)", "z-score": -0.00241}
{"compound": "COc1ccccc1N1CCSC1C(N)=O (configuration not stated)", "test_target": "Metabotropic glutamate receptor 8 (Rattus norvegicus)", "z-score": 0.0543}
{"compound": "COc1ccc(NC(=O)Cc2coc3cc(C)c(C(C)C)cc23)cc1S(=O)(=O)N1CCOCC1", "test_target": "Metabotropic glutamate receptor 8 (Rattus norvegicus)", "z-score": -0.503}
{"compound": "O=C(CSc1nc2cc(Cl)ccc2s1)NC1CCCc2ccccc21 (configuration not stated)", "test_target": "Metabotropic glutamate receptor 8 (Rattus norvegicus)", "z-score": -0.115}
{"compound": "Cn1nnnc1SCC(=O)Nc1ccccc1C(=O)NCc1ccccc1", "test_target": "Metabotropic glutamate receptor 8 (Rattus norvegicus)", "z-score": 0.00964}
{"compound": "CN1CCN(S(=O)(=O)c2cccc(S(=O)(=O)c3cccc(S(=O)(=O)N4CCN(C)CC4)c3)c2)CC1", "test_target": "Metabotropic glutamate receptor 8 (Rattus norvegicus)", "z-score": 14}
{"compound": "COC(=O)c1ccccc1NC(=O)C1CC(=O)N(c2ccc(C)cc2)C1 (configuration not stated)", "test_target": "Metabotropic glutamate receptor 8 (Rattus norvegicus)", "z-score": -0.265}
{"compound": "O=C(NCc1ccc2c(c1)OCO2)C1CCN(Cc2cnn(-c3ccccc3)c2-n2cccc2)CC1", "test_target": "Metabotropic glutamate receptor 8 (Rattus norvegicus)", "z-score": 3.14}
{"compound": "O=S(=O)(c1ccccc1)N1CCN(C(=S)Nc2ccc(F)cc2)CC1", "test_target": "Metabotropic glutamate receptor 8 (Rattus norvegicus)", "z-score": 3.37}
{"compound": "COC(=O)c1ccccc1NC(=O)C1CC(=O)N(c2ccccc2)C1 (configuration not stated)", "test_target": "Metabotropic glutamate receptor 8 (Rattus norvegicus)", "z-score": -0.0106}
{"compound": "COc1cccc(NC(=O)C2CCN(Cc3cnn(-c4ccccc4)c3-n3cccc3)CC2)c1", "test_target": "Metabotropic glutamate receptor 8 (Rattus norvegicus)", "z-score": -0.463}
